Molecular target: LDB3, O75112
Sequence (O75112 1-94): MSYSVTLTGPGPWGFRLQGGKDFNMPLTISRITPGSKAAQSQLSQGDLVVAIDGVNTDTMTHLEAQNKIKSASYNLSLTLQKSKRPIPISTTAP
Test: holdup assay
Set-up: key: below the threshold = too weak to quantify, mostly under pKd 3.1 to 4
Settings: plain residues with an end cap or a label only (N-terminal biotin on a linker: ado-ado)
Reported property: pKd

Study these solved cases before continuing.
## Task Tell me the measured pKd of GSQSQVETEA [FKBP4, Q02790] , please.
## Result below the threshold

## Task Data request, read-out pKd, for VISSDDLTEL [CAPN6, Q9Y6Q1]
## Result 3.53

## Task Can you look up the measured pKd of PALKNGQYWV [CSPG4, Q6UVK1] for me?
## Result below the threshold

## Task // lookup pKd for QQGLLPHSSC [TYRO3, Q06418]
## Result below the threshold

## Task Give the measured pKd of KPDKQEEFYA [SDC3, O75056] .
## Result below the threshold

New cases:
## Task Form field: reported pKd of LPPPESESKV [KCNJ9, Q92806]
## Result below the threshold

## Task Can you share its pKd? I mean this binder: PGKKPEDSRV [SLCO2B1, O94956]
## Result below the threshold
